System: RPMI-8226 leukemia
Test: NCI tumour cell line growth inhibition, 48 h
RECORDED_METRIC: GI50

Worked set:
NCC[PH+](c1ccccc1)c1ccccc1.NCC[PH+](c1ccccc1)c1ccccc1.[Cl-].[Pt+4]    14.7 µM
COc1ccc2c(c1)CCC1C2CCC2(C)C(NC(=O)CCCCC3CCSS3)CCC12 (centres undefined)    5.85 µM
COC(=O)c1sc(=S)c2sc(C(=O)OC)c(C(=O)OC)c2c1C(=O)OC    22 µM
Nc1nc2c([nH]1)c1[nH]c3ccccc3c1c1[nH]c3ccccc3c21    9.83 µM
COc1cc(C(=O)/C=C/c2c(C)n([O-])c3ccc(Cl)cc3[n+]2=O)cc(OC)c1OC    3.18 µM
COc1ccc(-c2nn(-c3cccc(Cl)c3)cc2-c2c(C#N)c(=O)n3[nH]c(-c4ccc(C)o4)nc3c2C#N)cc1    5.68 µM

[in] Dear colleague, I am looking for the recorded GI50 of the following compound: CC(=O)CCN1CC2CN=NC2(C#N)C1 (centres undefined)
[out] > 100 µM

[in] Dear colleague, I am looking for the recorded GI50 of the following compound: "Cc1ncc([N+](=O)[O-])n1CCOc1ccc(C(=O)/C=C/c2ccc(C(F)(F)F)cc2)cc1"
[out] 1.91 µM

[in] Dear colleague, I am looking for the recorded GI50 of the following compound: "COc1cc(/C=C/C(=O)/C=C/c2ccc(-n3ccnc3)cc2)ccc1O"
[out] 1.54 µM
